# system: T1, Human PSMA ECD (Lys44-Ala750), N-6xHis (PSMW39) (human, UniProt Q04609 44-750)
# T1 construct: also called PSMW39.002; hu PSMA
# T1 sequence (Q04609 other isoform, or with tags, fused parts or gaps): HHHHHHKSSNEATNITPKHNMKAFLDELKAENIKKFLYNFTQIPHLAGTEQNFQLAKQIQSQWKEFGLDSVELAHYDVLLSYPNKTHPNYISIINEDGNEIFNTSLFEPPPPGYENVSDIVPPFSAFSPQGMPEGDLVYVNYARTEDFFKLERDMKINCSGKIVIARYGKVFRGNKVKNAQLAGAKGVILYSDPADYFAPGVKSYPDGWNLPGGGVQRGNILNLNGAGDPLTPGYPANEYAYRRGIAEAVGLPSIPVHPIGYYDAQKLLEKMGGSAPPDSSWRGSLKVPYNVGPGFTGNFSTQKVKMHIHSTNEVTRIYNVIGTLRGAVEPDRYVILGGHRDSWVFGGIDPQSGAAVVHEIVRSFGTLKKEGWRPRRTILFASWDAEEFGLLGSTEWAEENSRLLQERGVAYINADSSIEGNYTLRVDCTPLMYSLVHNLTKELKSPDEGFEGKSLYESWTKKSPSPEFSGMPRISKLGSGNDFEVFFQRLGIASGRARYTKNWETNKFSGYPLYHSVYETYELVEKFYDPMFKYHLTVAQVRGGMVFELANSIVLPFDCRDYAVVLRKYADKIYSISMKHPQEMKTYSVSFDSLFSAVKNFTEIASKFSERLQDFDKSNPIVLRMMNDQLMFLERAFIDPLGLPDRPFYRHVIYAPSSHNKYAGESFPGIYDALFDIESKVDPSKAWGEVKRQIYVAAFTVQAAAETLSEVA
# assay-text: SPR Biacore 8K, mAb captured by anti-Fc, antigen in solution
Give measured Kd for each item. Keep answers brief.
Give bare numbers, in nM.

Would you mind giving Kd for every binder in the list below?
1. PSMB899 (antibody, human IgG1, lambda, L234A L235A, V domains shown) VH: EVQLVESGGGLVQPGGSLRLSCTASGFIFSSYAMSWVRQAPGKGLEWVSAISGGYGAPYYADTVKGRFTISRDNSKNTLYLQMNSLRAEDTAVYYCAKDGVGATPYYFDDWGQGILVTVSS VL: QSVLTQPPSVSAAPGQKVTISCSGSSSNIGNNYVSWYQQLPGTAPKLLIFDNNKRPSGIPDRFSGSKSGTSATLGITGLQTGDEADYYCGTWDSSLSAYVFGTGTKVTVLG
2. PSMB895 (antibody, human IgG1, lambda, L234A L235A, V domains shown) VH: EVQLVESGGGLVQPGGSLRLSCAASGFTFSSYAMSWVRQAPGKGLEWVSAISGGIGSTYYADSVKGRFTISRDNSKNTLWLQMNSLRAEDTAVYYCAKDGVGATPYYFDYWGQGTLVTVSS VL: QSVLTQPPSVSAAPGQKVTISCSGSSSNIGNNYVSWYQQLPGTAPKLLIYDNNKRPSGIPDRFSGSKSGTSATLGITGLQTGDEADYYCGTWDSSLSAYVFGTGTKVTVLG

1. 0.132
2. 0.704
